Attribution: paper PMC5840146

Measured pIC50, listed per entry.
STUDY SYSTEM: MAO-B (Homo sapiens, UniProt P27338)
Construct: purchased Sigma-Aldrich
Sequence (P27338 whole entry): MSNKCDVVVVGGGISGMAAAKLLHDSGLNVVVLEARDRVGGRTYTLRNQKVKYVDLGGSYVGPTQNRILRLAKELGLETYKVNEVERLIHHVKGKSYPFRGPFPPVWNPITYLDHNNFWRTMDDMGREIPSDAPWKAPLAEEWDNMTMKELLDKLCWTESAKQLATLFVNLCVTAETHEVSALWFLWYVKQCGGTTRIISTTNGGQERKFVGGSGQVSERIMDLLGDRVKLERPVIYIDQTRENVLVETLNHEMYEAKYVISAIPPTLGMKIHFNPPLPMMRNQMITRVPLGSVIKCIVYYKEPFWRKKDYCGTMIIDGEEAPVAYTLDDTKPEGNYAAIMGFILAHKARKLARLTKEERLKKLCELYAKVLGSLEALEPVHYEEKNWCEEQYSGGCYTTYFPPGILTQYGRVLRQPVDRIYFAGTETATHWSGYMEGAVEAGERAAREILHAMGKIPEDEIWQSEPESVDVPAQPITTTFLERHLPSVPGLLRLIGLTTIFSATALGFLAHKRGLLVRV
EXPERIMENT SUMMARY: continuous spectrophotometric MAO-B inhibition assay
Format: biochemical
CONDITION SET: dilution series 50 μM to 1 nM, duplicates; read-out: MAO-B inhibition IC50
pIC50: −log10 of the molar value.

[
  {
    "LINE NOTATION": "COc1ccc2oc(=O)c(-c3ccc(OC(F)(F)F)cc3)cc2c1",
    "STUDY SYSTEM": "MAO-B (Homo sapiens, UniProt P27338)",
    "pIC50": 6.50
  },
  {
    "LINE NOTATION": "CN(C)c1ccc(-c2cc3ccc(O)cc3oc2=O)cc1",
    "STUDY SYSTEM": "MAO-B (Homo sapiens, UniProt P27338)",
    "pIC50": 6.42
  },
  {
    "LINE NOTATION": "COc1ccc2cc(-c3ccc(O)c(F)c3)c(=O)oc2c1",
    "STUDY SYSTEM": "MAO-B (Homo sapiens, UniProt P27338)",
    "pIC50": 6.41
  },
  {
    "LINE NOTATION": "CC(=O)Oc1ccc(-c2cc3cc(Cl)cc(Cl)c3oc2=O)cc1F",
    "STUDY SYSTEM": "MAO-B (Homo sapiens, UniProt P27338)",
    "pIC50": 6.05
  }
]

----------
Consider the following molecules and their measured LiPE readings.
STUDY SYSTEM: MAO-B (Homo sapiens, UniProt P27338)
Construct: purchased Sigma-Aldrich
EXPERIMENT SUMMARY: continuous spectrophotometric MAO-B inhibition assay
Type: biochemical
CONDITION SET: LiPE = pIC50 - QPlogPo/w, new analogs and pargyline
Protocol: […] The protocol for continuous spectrophotometric assay (Holt et al., [1997]) was followed in the activity measurements. […] The background signal was measured using multilabel reader (Victor^TM X4, 2030 Multilabel Reader, PerkinElmer, Waltham, MA, USA) at A490 before reaching the total 200 μl volume by adding 20 μl of tyramine to final concentration of 0.5 mM on the plate. […] After adding the substrate, the plates were measured 300 times every 15 s using 1 s exposure time. […]
MEASURE: LiPE

[
  {
    "LINE NOTATION": "CC(=O)Oc1ccc(-c2cc3cc(Cl)cc(Cl)c3oc2=O)cc1F",
    "STUDY SYSTEM": "MAO-B (Homo sapiens, UniProt P27338)",
    "MEASURE": "LiPE",
    "READOUT VALUE": 2.69
  },
  {
    "LINE NOTATION": "CC(=O)Oc1ccc2cc(-c3ccc(N(C)C)cc3)c(=O)oc2c1",
    "STUDY SYSTEM": "MAO-B (Homo sapiens, UniProt P27338)",
    "MEASURE": "LiPE",
    "READOUT VALUE": 3.27
  },
  {
    "LINE NOTATION": "Cc1ccc2oc(=O)c(-c3ccc(F)cc3)cc2c1",
    "STUDY SYSTEM": "MAO-B (Homo sapiens, UniProt P27338)",
    "MEASURE": "LiPE",
    "READOUT VALUE": 2.46
  },
  {
    "LINE NOTATION": "COc1ccc2cc(-c3cc(F)c(F)cc3F)c(=O)oc2c1",
    "STUDY SYSTEM": "MAO-B (Homo sapiens, UniProt P27338)",
    "MEASURE": "LiPE",
    "READOUT VALUE": 2.13
  },
  {
    "LINE NOTATION": "COc1ccc2oc(=O)c(-c3cc(F)c(F)cc3F)cc2c1",
    "STUDY SYSTEM": "MAO-B (Homo sapiens, UniProt P27338)",
    "MEASURE": "LiPE",
    "READOUT VALUE": 2.80
  },
  {
    "LINE NOTATION": "COc1ccc2oc(=O)c(-c3ccc(O)c(F)c3)cc2c1",
    "STUDY SYSTEM": "MAO-B (Homo sapiens, UniProt P27338)",
    "MEASURE": "LiPE",
    "READOUT VALUE": 3.35
  },
  {
    "LINE NOTATION": "CN(C)c1ccc(-c2cc3ccc(O)cc3oc2=O)cc1",
    "STUDY SYSTEM": "MAO-B (Homo sapiens, UniProt P27338)",
    "MEASURE": "LiPE",
    "READOUT VALUE": 3.62
  },
  {
    "LINE NOTATION": "CC(=O)Oc1ccc2cc(-c3ccc(OC(F)(F)F)cc3)c(=O)oc2c1",
    "STUDY SYSTEM": "MAO-B (Homo sapiens, UniProt P27338)",
    "MEASURE": "LiPE",
    "READOUT VALUE": 3.52
  },
  {
    "LINE NOTATION": "COc1ccc(-c2cc3cc(OC)ccc3oc2=O)cc1",
    "STUDY SYSTEM": "MAO-B (Homo sapiens, UniProt P27338)",
    "MEASURE": "LiPE",
    "READOUT VALUE": 3.25
  }
]
